# survival enhancement listing for each entry below
test: enhancers of single-cell hiPSC survival, primary screen, ATPlite luminescence (AID 602274); details: at 20 µM, stronger effect = higher value, 100% = ROCK inhibitor wells, 0% = DMSO;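 further: cells exposed to compounds for 16 hours before the ATP read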
Screen size: about 360,000 compounds; about 160 (0.044%) were called active. The entries come from a sample that favours actives as a whole.
Form entry: value (%) — number only.

The reported value for Cc1ccc2cccc(S(=O)(=O)N3CCN(c4ccccc4F)CC3)c2n1 in terms of survival enhancement is 0

Sample COc1ccc(C(=O)NNC(=O)c2cnccn2)cc1[N+](=O)[O-] ; survival enhancement observed: -1.9

Kindly note the recorded survival enhancement for O=C(Nc1ccccc1-c1ccccc1)c1ccccc1[N+](=O)[O-] , which is 0.6

Record summary for CC(C)C(C)(C#N)NC(=O)CSc1nc2scc(-c3ccccc3)c2c(=O)[nH]1 (stereo not given) : reported survival enhancement = -0.3

Documented survival enhancement of CC(C)CCOc1ccc(C(=O)Nc2cc(S(=O)(=O)N3CCOCC3)ccc2N2CCOCC2)cc1 : -2.4

Just so you know, measured survival enhancement for CCNC(=O)Nc1ccc(S(=O)(=O)Nc2cnc(C)nc2C)cc1 came out at -0.1

Item: O=C(O)c1ccc([N+](=O)[O-])cc1Sc1ccsc1 | survival enhancement: 6.3

Query O=C(c1ccc(F)cc1)c1cn(Cc2ccc(F)cc2)c2cc3c(cc2c1=O)OCCO3 yields survival enhancement of -1.1

// survival enhancement lookup, compound = O=C(Nc1cccnc1)c1ccc(Cl)cc1[N+](=O)[O-] , result: -1.2

Looking up CCOC(=O)C1=CCC2C(=O)N(Cc3ccccc3)C(=O)C12 (stereo not given) , I found its survival enhancement recorded as -0.2

Just so you know, measured survival enhancement for CC(=O)NNC1=Nc2ccccc2N(C)C(C)C1 (stereo not given) came out at -0.5

CN(C)C(=O)CCc1ccc2c3c([nH]c2c1)[C@]1(C)[C@@H](C(=O)N2CCCCC2)C[C@H](CC(=O)NCCC2=CCCCC2)C(=O)N1CC3 has a reported survival enhancement of 1

The compound listed as CC[C@H]1OC(=O)[C@H](C)[C@@H](O[C@H]2C[C@@](C)(OC)[C@@H](O)[C@H](C)O2)[C@H](C)[C@@H](O[C@@H]2O[C@H](C)C[C@H](N(C)C)[C@H]2O)[C@](C)(O)C[C@@H](C)[C@@H]2N[C@@H](COCCOC)O[C@H]([C@H]2C)[C@]1(C)O has a reported survival enhancement of 1.7

Short answer for CCc1nc2ccc(C(=O)N3CCN(S(=O)(=O)CC)CC3)cn2c1N(C=O)CCC(C)C : survival enhancement was 0.9

What the record says about O=C(O)c1ccc(NS(=O)(=O)c2ccc3c(c2)C(=O)c2cc(S(=O)(=O)Nc4ccc(C(=O)O)cc4)ccc2-3)cc1 : survival enhancement is 4.4

Input CN(C)c1ccnc(Oc2ccc(F)cc2)c1C#N . Output survival enhancement: 1.8

# survival enhancement of COC(=O)C1=C(Nc2ccc(C)cc2)C=C(C)C(C(=O)OC)C1c1ccc(F)cc1 (stereo not given) = -0.6

Reported survival enhancement ( CC(=O)c1cnn(-c2cc(Oc3ccc(F)cc3)ncn2)c1C ) = 2.8

In plain terms, CCC(=NC1CC(C)(C)NC(C)(C)C1)C1=C(O)CC(C)(C)CC1=O has a documented survival enhancement of -1.8
